Values compiled from patent US9346786B2.

system under test: recombinant human NK3 receptor (Homo sapiens (Human), UniProt P29371)
Sequence (P29371 whole entry): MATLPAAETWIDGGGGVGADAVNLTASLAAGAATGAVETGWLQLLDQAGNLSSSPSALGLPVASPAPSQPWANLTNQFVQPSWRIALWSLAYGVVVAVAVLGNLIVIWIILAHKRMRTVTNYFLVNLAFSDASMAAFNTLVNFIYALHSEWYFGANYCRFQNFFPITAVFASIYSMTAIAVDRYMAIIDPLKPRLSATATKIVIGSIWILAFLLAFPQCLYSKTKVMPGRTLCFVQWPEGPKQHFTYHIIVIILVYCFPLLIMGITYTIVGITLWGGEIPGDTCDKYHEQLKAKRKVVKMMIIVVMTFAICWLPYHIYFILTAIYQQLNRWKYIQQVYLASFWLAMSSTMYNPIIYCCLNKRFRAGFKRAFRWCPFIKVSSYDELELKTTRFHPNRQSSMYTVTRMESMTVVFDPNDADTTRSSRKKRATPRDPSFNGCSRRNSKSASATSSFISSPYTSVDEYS
experimental protocol: biochemical
Format: binding
assay conditions: [3H]SR142801, membranes of HEK293 cells transiently expressing recombinant human NK3 receptor; read-out: Data Ki (hNK-3 receptor affinity)
Procedure: [^3H]SR142801 Competition Binding Assay hNK3 receptor binding experiment were performed using [^3H]SR142801 (Catalog No. TRK1035, specific activity: 74.0 Ci/mmol, Amersham, GE Healthcare UK limited, Buckinghamshire, UK) and membrane isolated from HEK293 cells transiently expressing recombinant human NK3 receptor. […] Nonspecific binding was measured in the presence of 10 μM SB222200 for both radioligands. […]
observable: Ki (nM)
Please reply with the bare figure in nM and do not write the unit itself.

Worked cases, answers included:
Sample CCN(C(=O)Oc1ccc(F)cc1)[C@@H]1CN(C(=O)C2CCN(c3ccc(C(C)=O)cn3)CC2)C[C@H]1c1ccc(Cl)c(F)c1 [Example 59] , system: recombinant human NK3 receptor (Homo sapiens (Human), UniProt P29371). Its Ki is 0.5

Sample CCN(C(=O)Oc1ccc(F)cc1)[C@@H]1CN(C(=O)C2CCN(c3ccc(F)cn3)CC2)C[C@H]1c1ccc(F)c(F)c1 [Example 54] , system: recombinant human NK3 receptor (Homo sapiens (Human), UniProt P29371). Its Ki is 7

Sample CCN(C(=O)Oc1ccc(F)cc1)[C@H]1CN(C(=O)C2CCN(c3ccc(C#N)nn3)CC2)C[C@@H]1c1ccc(Cl)cc1 [Example 12] , system: recombinant human NK3 receptor (Homo sapiens (Human), UniProt P29371). Its Ki is 23

Sample CCN(C(=O)Oc1ccc(F)cc1)[C@@H]1CN(C(=O)C2CCN(C(=O)c3ccc(C#N)nc3)CC2)C[C@H]1c1ccc(Cl)c(F)c1 [Example 79] , system: recombinant human NK3 receptor (Homo sapiens (Human), UniProt P29371). Its Ki is 8

Sample CCN(C(=O)Oc1ccc(F)cc1)[C@@H]1CN(C(=O)C2CCN(C(=O)CC#N)CC2)C[C@H]1c1ccc(Cl)cc1 [Example 93] , system: recombinant human NK3 receptor (Homo sapiens (Human), UniProt P29371). Its Ki is 7.1

Sample CCN(C(=O)Oc1ccc(F)cc1)[C@@H]1CN(C(=O)C2CCN(C(=O)C3CC3(F)F)CC2)C[C@H]1c1ccc(Cl)c(F)c1 (stereo partly shown) [Example 70] , system: recombinant human NK3 receptor (Homo sapiens (Human), UniProt P29371). Its Ki is 4

Sample CCN(C(=O)Oc1ccc(F)cc1)[C@@H]1CN(C(=O)C2CCN(C(C)=O)CC2)C[C@H]1c1ccc(Cl)cc1 [Example 82] , system: recombinant human NK3 receptor (Homo sapiens (Human), UniProt P29371). Its Ki is 8.2

Sample CC(=O)c1ccc(N2CCC(C(=O)N3C[C@@H](N(C(=O)Oc4ccc(F)cc4)C4CC4)[C@H](c4ccc(Cl)cc4)C3)CC2)nc1 [Example 30] , system: recombinant human NK3 receptor (Homo sapiens (Human), UniProt P29371). Its Ki is 35

Others:
Sample CCN(C(=O)Oc1ccc(F)cc1)[C@@H]1CN(C(=O)C2CCN(C(=O)C3(C)COC3)CC2)C[C@H]1c1ccc(Cl)cc1 [Example 88] , system: recombinant human NK3 receptor (Homo sapiens (Human), UniProt P29371). Its Ki is 5.6

Sample CCN(C(=O)Oc1ccc(F)cc1)[C@@H]1CN(C(=O)C2CCN(c3ccc(C#N)nn3)CC2)C[C@H]1c1ccc(F)c(F)c1 [Example 58] , system: recombinant human NK3 receptor (Homo sapiens (Human), UniProt P29371). Its Ki is 5

Sample CCN(C(=O)Oc1ccc(F)cc1)[C@@H]1CN(C(=O)C2CCN(C(=O)C3(C(F)(F)F)CCC3)CC2)C[C@H]1c1ccc(Cl)cc1 [Example 92] , system: recombinant human NK3 receptor (Homo sapiens (Human), UniProt P29371). Its Ki is 6.6

Sample CC(C)N(C(=O)Oc1ccc(F)cc1)[C@@H]1CN(C(=O)C2CCN(c3ccc(C#N)cn3)CC2)C[C@H]1c1ccc(Cl)cc1 [Example 23] , system: recombinant human NK3 receptor (Homo sapiens (Human), UniProt P29371). Its Ki is 21

Sample CCN(C(=O)Oc1ccc(F)cc1)[C@@H]1CN(C(=O)C2CCN(c3ccc(C#N)nn3)CC2)C[C@H]1c1ccc(Cl)c(F)c1 [Example 57] , system: recombinant human NK3 receptor (Homo sapiens (Human), UniProt P29371). Its Ki is 0.7
